test details: β-cyclodextrin dissolution rate in deionized water by refractive index
Type: physicochemical
assay setup: time 2 min; 350 mg in 50 mL deionized water
property label: β-Cyclodextrin Dissolved (%)
// note: answer is a bare numeric in %

(Q) Consider the compound OC[C@H]1O[C@@H]2O[C@H]3[C@H](O)[C@@H](O)[C@@H](O[C@H]4[C@H](O)[C@@H](O)[C@@H](O[C@H]5[C@H](O)[C@@H](O)[C@@H](O[C@H]6[C@H](O)[C@@H](O)[C@@H](O[C@H]7[C@H](O)[C@@H](O)[C@@H](O[C@H]8[C@H](O)[C@@H](O)[C@@H](O[C@H]1[C@H](O)[C@H]2O)O[C@@H]8CO)O[C@@H]7CO)O[C@@H]6CO)O[C@@H]5CO)O[C@@H]4CO)O[C@@H]3CO [116 μm, β-cyclodextrin] and give its measured β-Cyclodextrin Dissolved (%).
(A) 76
